The reported measurements were obtained from ChEMBL document CHEMBL1201862.

- System: M14
- method_description: NCI tumour cell line growth inhibition, 48 h
The source made the active and inactive calls. No stated cut-off is given here; in the data, active = GI50 up to about 1.1 µM and inactive = higher.
observation_type: GI50

Query :: Given the compound CC(=O)NC1c2ccccc2C(C)(C)C12CCC1(CC2)OCCO1 (configuration not stated) , what is its reported GI50?
Result :: > 100 µM (inactive)

Query :: // returns reported GI50 for input Cc1cc(S(=O)(=O)[N-]C(=C(C#N)C#N)[n+]2ccc(N(C)C)cc2)c(SCC(=O)O)cc1Cl
Result :: > 100 µM (inactive)

Query :: Recorded GI50 for O=C(O)C(CO)NC(=O)C1C(C(=O)O)C(c2ccccc2[N+](=O)[O-])C=C(c2ccco2)N1c1ccncc1 (configuration not stated) , please?
Result :: 4.32 µM (inactive)

Query :: Look up GI50: CO/S(=N/S(=O)(=O)c1ccccc1)c1ccccc1[N+](=O)[O-] (configuration not stated)
Result :: > 100 µM (inactive)

Query :: Entry Cc1ccc(C2=C(c3ccccc3)C(Br)(c3ccccc3)C(c3ccccc3)=C2c2ccc(C)cc2)cc1 : reported GI50 = ?
Result :: > 100 µM (inactive)

Query :: Name the recorded GI50 for COc1ccc(CNC2=Nc3ccncc3S(=O)(=O)N2c2ccccc2)cc1 .
Result :: 57.7 µM (inactive)

Query :: May I ask what GI50 has been recorded for CNC(=S)c1nnsc1N ?
Result :: > 100 µM (inactive)

---

- System: HL-60
- method_description: NCI tumour cell line growth inhibition, 48 h
Calls of active or inactive are those of the source. Rule as the data show it: active = GI50 up to about 1.1 µM and inactive = higher.
Result category, one only: true for active, false for inactive

Query :: Per the assay record, what outcome was assigned to CN(C)CCNC(=O)c1cccc2nc(-c3ccccc3)oc12 ?
Result :: false

Query :: Per the assay record, what outcome was assigned to c1ccc(-c2ccnc3c2ccc2c(-c4ccccc4)ccnc23)cc1 ?
Result :: true

Query :: Kindly provide the recorded test outcome for the following compound: COC1(OC)C2C=CC1C([C@](C)(N)CO)C2 (some centres undefined)
Result :: false

Query :: Hey, what did the test say about CNS(=O)(=O)NN(C)S(=O)(=O)c1ccc(Cl)cc1 ?
Result :: false

---

Consider the following compounds; for each one, report its GI50.
- Tested on: U-251
- method_description: NCI tumour cell line growth inhibition, 48 h
Activity calls are given as the source filed them. Cut-off read from the data, not from the text of the source: active = GI50 up to about 1.1 µM and inactive = higher.

Query :: Report GI50 for CC(=O)COC(=O)CC(C)=O please.
Result :: > 100 µM (inactive)

Query :: # lookup: GI50 of O=NN1CCNC1Cc1ccccc1 (configuration not stated)
Result :: 33.3 µM (inactive)

Query :: Quick check: GI50 of O=C1CC2C(=O)c3ccccc3CC2c2ccccc21 (configuration not stated) ?
Result :: 57.4 µM (inactive)

Query :: Report GI50 for CC(C)C(Sc1nc(-c2ccccc2)c(-c2ccccc2)[nH]1)C(=O)N/N=C/c1ccc(Cl)cc1 (configuration not stated) please.
Result :: 21.7 µM (inactive)

Query :: Can you look up the measured GI50 of O=C(O)c1c2c(cc3c1CC1(Cc4cc5c(cc4C1=O)CCC5)C3)CCC2 (configuration not stated) for me?
Result :: 85.9 µM (inactive)

Query :: // lookup GI50 for O=C1C=C(Br)C(=O)C12CCc1ccccc12 (configuration not stated)
Result :: 21.7 µM (inactive)

Query :: Which measured GI50 value corresponds to CCOC(=O)C(=CNC(=S)c1ccncc1)C(=O)OCC ?
Result :: > 100 µM (inactive)

Query :: Name the recorded GI50 for O=C(CC(C(=O)c1ccsc1)c1ccccc1)c1ccccc1 (configuration not stated) .
Result :: 95.9 µM (inactive)

Query :: Give its GI50 value. Item: COc1ccc(CNC2=Nc3ccncc3S(=O)(=O)N2c2ccccc2)cc1
Result :: 68.1 µM (inactive)

Query :: Given the entry COc1ccc(-c2onc(-c3c(C)cc(C)cc3C)c2C2=NCCN2)cc1 , report its measured GI50.
Result :: 18.9 µM (inactive)

Query :: # get_value(readout='GI50', item= N/C(=N/c1ccc(O)cc1)S(=O)O )
Result :: > 100 µM (inactive)

Query :: Which value of GI50 has been reported for C/C(=N\N=C(N)N)c1sc(-c2nc(C)c(/C(C)=N/N=C(N)N)s2)nc1C in the records?
Result :: > 95.3 µM (inactive)

Query :: What value of GI50 has been recorded for this entry: Nc1nc(Cl)cc(NCC2CC(O)(CO)C2)n1 (configuration not stated)
Result :: > 100 µM (inactive)

Query :: So what does the record say about GI50 for CCOC(=O)c1cnc(N(C)C)nc1SC(=N)N ?
Result :: > 100 µM (inactive)

Query :: Bench note: what GI50 did CCCCCOc1ccc(/C=N\c2ccc(-c3ccc(/N=C\c4ccc(OCCCCC)cc4)c(OC)c3)cc2OC)cc1 show?
Result :: > 100 µM (inactive)

Query :: What measured GI50 goes with O=C1c2ccccc2-c2nc(/C=C/c3ccccc3)cc3c2c1nc1ccccc13 ?
Result :: 17.7 µM (inactive)

Query :: I would be grateful if you could share the reported GI50 for C=C1C(=O)OC2/C=C(\C)C3OC3/C=C(/C(=O)OC)C(OC(C)=O)C(OC(=O)C(C)(O)C(C)OC(C)=O)C12 (configuration not stated) .
Result :: 3.03 µM (inactive)

Query :: Which GI50 value belongs to COC1OC(COC(=O)c2cc(O)c(O)c(O)c2)C(OC(=O)c2cc(O)c(O)c(O)c2)C(OC(=O)c2cc(O)c(O)c(O)c2)C1OC(=O)c1cc(O)c(O)c(O)c1 (configuration not stated) ?
Result :: 10.6 µM (inactive)

Query :: # lookup: GI50 of CC(=O)OCC1OC(N2C(=O)/C(=C\c3ccc(Cl)cc3)C(N)=Nc3ccccc32)C(OC(C)=O)C(OC(C)=O)C1OC(C)=O (configuration not stated)
Result :: 14.6 µM (inactive)

Query :: Which measured GI50 value corresponds to COc1ccc(C(=O)CCN(C)C)c2ccccc12 ?
Result :: 18.2 µM (inactive)

Query :: Requested field: GI50. Item: C=C[C@@H]1C[C@]2(C(=O)OC)Cc3nc4ccccc4nc3CC(C(=O)OC)=C2O1
Result :: 92.7 µM (inactive)

Query :: So what's the measured GI50 for this one? C=C1CN=C(Nc2ccc(Cl)cc2)S1
Result :: 93.3 µM (inactive)
